target: α2β2γ1 GABAA receptor subtype (Homo sapiens (Human), UniProt P47869+Q8N1C3); test: Two-electrode voltage clamp electrophysiology in Xenopus oocytes expressing GABAA receptors (modulation of GABA EC20 current); format: cell-based; conditions: Xenopus oocytes expressing α2β2γ1; compound at approx. 30-fold its Ki α2β2γ1; GABA EC20 current
Property Name: Fold increase h-GABA-A α2β2γ1 oocyte @ 30-fold Ki
Enter a number only.

Reference set, count: 3
{"Smiles Data": "C[C@@H]1N=C(c2c(F)cccc2F)c2c(ccc(Cl)c2Cl)-n2nc(N3CC(C#N)C3)nc21", "Reported": 1.69}
{"Smiles Data": "C[C@@H]1N=C(c2c(F)cccc2F)c2c(ccc(C(F)(F)F)c2Cl)-n2nc(C(=O)NCCO)nc21", "Reported": 2.03}
{"Smiles Data": "C[C@@H]1N=C(c2c(F)cccc2F)c2c(ccc(Cl)c2Cl)-n2nc(CO)nc21", "Reported": 1.59}

Continue with the molecule presented below.
Per the records, this molecule ( `C[C@@H]1N=C(c2c(F)cccc2F)c2c(ccc(Cl)c2Cl)-n2nc(C(N)=O)nc21` ) has Fold increase h-GABA-A α2β2γ1 oocyte @ 30-fold Ki equal to 1.67
